ASSAY TARGET: unrelated Fc-fused recombinant protein
EXPERIMENT DESCRIPTION: ELISA, lysate on plate-bound antigen
The threshold is inclusive: ELISA Fc Control (RSU) of exactly 800 RSU counts as Yes; values below receive No.

Here's what some known entries look like.
BINDER	CATEGORY LABEL
ISOP121AR5P1F9 (designed binder, not shown: small tags and cut ends, FN3 domain; E. coli lysate in the ELISA) LPAPKNLVVSRVTEDSARLSWGWSELIATHFDSFLIQYQESEKVGEAIVLTVPGSERSYDLTGLKPGTEYTVSIYGVYNRKVNFYSNPLSAIFTT	Yes
ISOP121BR5P1C5 (designed binder, not shown: small tags and cut ends, FN3 domain; E. coli lysate in the ELISA) LPAPKNLVVSRVTEDSARLSWFRLRIVQTFDSFLIQYQESEKVGEAIVLTVPGSERSYDLTGLKPGTEYTVSIYGVITVVELLQQSNPLSAIFTT	No
ISOP121AR5P1F2 (designed binder, not shown: small tags and cut ends, FN3 domain; E. coli lysate in the ELISA) LPAPKNLVISRVTEDSARLSWGWSELIATHFDSFLIQYQESEKVGEAIVLTVPGSERSYDLTGLKPGTEYTVSIYGVYNRKVNFYSNPLSAIFTT	Yes

Attention now turns to another entry.
Prompt line: Does the reported ELISA Fc Control (RSU) for ISOP121GR5P1F6 (designed binder, not shown: small tags and cut ends, FN3 domain; E. coli lysate in the ELISA) LPAPKNLVVSRVTEDSARLSWTAPDAAFDSFDIRYHEYTWPGEAIVLLVPGSERSYDLTGLKPGTEYGVYINGVKGGFRSKPLFAWFTTGG fall at or above the 800 RSU mark?
Response line: No
